# Tested on: oat, wild (wild oat, Avena fatua)
# test method notes: Test C preemergence, wild oat
# Format: in vivo
# protocol conditions: 31 g ai/ha Preemergence; 0 is no effect, 100 is complete control
Each record here notes measured Plant response rating (0 to 100 scale), Oat, Wild.
property label: Plant response rating (0 to 100 scale), Oat, Wild

{"columns": ["molecule", "quantitative readout"],
 "data": [
  ["CC#CCOC1CCN(c2cc(NS(=O)(=O)C(F)(F)F)c(C)cc2C)C1=O (stereo not shown)", 90],
  ["Cc1c(N2CCC(OC3CC3)C2=O)cc(N(C(=O)OCC(C)C)S(=O)(=O)C(F)(F)F)c(C)c1C (stereo not shown)", 70],
  ["Cc1cc(C)c(N2CCC(O)C2=O)cc1NS(=O)(=O)C(F)(F)F (stereo not shown)", 10],
  ["COC(=O)N(c1cc(N2CCC(OC3CC3)C2=O)c(C)cc1C)S(=O)(=O)C(F)(F)F (stereo not shown)", 0]
]}

---

# System: goosegrass (Eleusine indica)
# test method notes: Test C preemergence, goosegrass
# Format: in vivo
# protocol conditions: 31 g ai/ha Preemergence; 0 is no effect, 100 is complete control
Decision: Plant response rating (0 to 100 scale), Goosegrass >= 70 yields y, all other cases yield n.

{"columns": ["compound", "class assignment"],
 "data": [
  ["Cc1cc(C)c(N2CC/C(=N\\O)C2=O)cc1NS(=O)(=O)C(F)(F)F", "y"],
  ["CO/N=C1\\CCN(c2cc(NS(=O)(=O)C(F)(F)F)c(C)cc2C)C1=O", "y"],
  ["Cc1c(N2CCCC(OC3CCC3)C2=O)cc(N(COC(=O)C(C)(C)C)S(=O)(=O)C(F)(F)F)c(C)c1F (stereo not drawn)", "n"],
  ["CCOC(=O)N(c1cc(N2CCC(OC3CC3)C2=O)c(C)cc1C)S(=O)(=O)C(F)(F)F (stereo not drawn)", "n"],
  ["Cc1c(NS(=O)(=O)C(F)(F)F)cc(N2CCC(OCC3CC3)C2=O)c(C)c1F (stereo not drawn)", "y"]
]}

---

Each record here notes measured Plant response rating (0 to 100 scale), Goosegrass.
# Tested on: goosegrass (Eleusine indica)
# test method notes: Test C preemergence, goosegrass
# Assay type: in vivo
# protocol conditions: 31 g ai/ha Preemergence; 0 is no effect, 100 is complete control
property label: Plant response rating (0 to 100 scale), Goosegrass

{"columns": ["compound", "quantitative readout"],
 "data": [
  ["Cc1c(NS(=O)(=O)C(F)(F)F)cc(N2CCCC(OC3CCC3)C2=O)c(C)c1F (stereo not drawn) [Compound 36]", 90],
  ["Cc1cc(C)c(N(COC(=O)C(C)(C)C)S(=O)(=O)C(F)(F)F)cc1N1CCC(OCC2CC(F)(F)C2)C1=O (stereo not drawn) [Compound 55]", 10],
  ["Cc1c(N2CCC(OC3CCC3)C2=O)cc(N(C(=O)OCC(C)C)S(=O)(=O)C(F)(F)F)c(C)c1C (stereo not drawn) [Compound 48]", 80],
  ["Cc1cc(C)c(N(C(=O)OCC(C)C)S(=O)(=O)C(F)(F)F)cc1N1CCC(OC2CC2)C1=O (stereo not drawn) [Compound 21]", 90],
  ["CCO/N=C1\\CCN(c2cc(NS(=O)(=O)C(F)(F)F)c(C)cc2C)C1=O [Compound 12]", 90],
  ["Cc1c(NS(=O)(=O)C(F)(F)F)cc(N2CCCC(OC3CC3)C2=O)c(C)c1F (stereo not drawn) [Compound 35]", 100],
  ["Cc1c(NS(=O)(=O)C(F)(F)F)cc(N2CCC(OC3CCC3)C2=O)c(C)c1F (stereo not drawn) [Compound 25]", 90],
  ["Cc1c(NS(=O)(=O)C(F)(F)F)cc(N2CCC(OC3CC3)C2=O)c(C)c1C (stereo not drawn) [Compound 47]", 100],
  ["Cc1c(N2CCC(OC3CCC3)C2=O)cc(N(COC(=O)C(C)(C)C)S(=O)(=O)C(F)(F)F)c(C)c1C (stereo not drawn) [Compound 51]", 0]
]}

Data provenance is patent US20240158348A1.
